System: L1210 leukemia ip in BDF1 mice, survival T/C
Experiment: NCI In Vivo Anticancer Drug Screen. Data for tumor model L1210 Leukemia (intraperitoneal) in B6D2F1 (BDF1) mice
Settings: endpoint: mean survival time; dose: 50.0 mg/kg/injection; schedule: Q01DX009 (ip); vehicle: saline
Experimental: The antitumor activity of compounds was measured in mice bearing transplantable tumors. Survival or tumor size were measured and the results are expressed as the measurement made in the treated group (T) divided by the measurement made in the vehicle treated control group (C). The tumor model used in this assay is L1210 Leukemia (intraperitoneal) in B6D2F1 (BDF1) mice
Inconclusive results and toxic doses are left out. No stated cut-off is given here; in the data, active means T/C of 150% or more; inactive means T/C below 125%.
Labels: active, inactive

[[record]]
compound = "CCC(C)C(C(=O)OCCC[N+]1(C)CCCCC1)c1ccccc1 (stereo unspecified)"
test_target = "L1210 leukemia ip in BDF1 mice, survival T/C"
class = "inactive"

[[record]]
compound = "N#CC[CH2][Sn]([Br])([Br])[CH2]CC#N"
test_target = "L1210 leukemia ip in BDF1 mice, survival T/C"
class = "inactive"

[[record]]
compound = "CCOC(=O)C(=CN(C(C)C)C(C)C)C(=O)OCC"
test_target = "L1210 leukemia ip in BDF1 mice, survival T/C"
class = "inactive"

[[record]]
compound = "Nc1nc(N)c2cc(CNc3ccc(C(=O)NC(CC(=O)O)CC(=O)O)cc3)ccc2n1"
test_target = "L1210 leukemia ip in BDF1 mice, survival T/C"
class = "active"

[[record]]
compound = "COc1cc(CC(C)N)cc(OC)c1OC (stereo unspecified)"
test_target = "L1210 leukemia ip in BDF1 mice, survival T/C"
class = "inactive"

[[record]]
compound = "C=CC(=O)Oc1ccc([N+](=O)[O-])cc1"
test_target = "L1210 leukemia ip in BDF1 mice, survival T/C"
class = "inactive"


====

System: L1210 leukemia ip in BDF1 mice, survival T/C
Experiment: NCI In Vivo Anticancer Drug Screen. Data for tumor model L1210 Leukemia (intraperitoneal) in B6D2F1 (BDF1) mice
Conditions: endpoint: mean survival time; dose: 100.0 mg/kg/injection; schedule: Q01DX001 (ip); vehicle: saline; higher = longer survival
Toxic doses and inconclusive results are not listed.
Recorded T/C by entry
parameter-measured: T/C

[[record]]
compound = "COc1ccc(/C=C(/C)[N+](=O)[O-])cc1OC"
test_target = "L1210 leukemia ip in BDF1 mice, survival T/C"
result_value = "93 % of control"

[[record]]
compound = "CN(C)CCNC(=O)CN"
test_target = "L1210 leukemia ip in BDF1 mice, survival T/C"
result_value = "102 % of control"

[[record]]
compound = "O=[N+]([O-])c1cccc(/C=C/C=C/c2c(Cl)cccc2Cl)c1"
test_target = "L1210 leukemia ip in BDF1 mice, survival T/C"
result_value = "91 % of control"

[[record]]
compound = "C=C(CC(N)=O)C(=O)O (tested in a mixture with another compound)"
test_target = "L1210 leukemia ip in BDF1 mice, survival T/C"
result_value = "118 % of control"

[[record]]
compound = "O=S(=O)(O)CCS"
test_target = "L1210 leukemia ip in BDF1 mice, survival T/C"
result_value = "94 % of control"

[[record]]
compound = "COc1cc(C(=O)Cl)cc(OC)c1OC(C)=O"
test_target = "L1210 leukemia ip in BDF1 mice, survival T/C"
result_value = "93 % of control"

[[record]]
compound = "CCOC(=O)/C(C)=N\\N=C(/CCOC)COC"
test_target = "L1210 leukemia ip in BDF1 mice, survival T/C"
result_value = "101 % of control"

[[record]]
compound = "Cc1cc(N)c(C(=O)NN)cc1C"
test_target = "L1210 leukemia ip in BDF1 mice, survival T/C"
result_value = "96 % of control"

[[record]]
compound = "NC(C(=O)O)c1cccc(F)c1 (stereo unspecified)"
test_target = "L1210 leukemia ip in BDF1 mice, survival T/C"
result_value = "101 % of control"

[[record]]
compound = "O=C(CN1C(=O)c2ccccc2C1=O)NCC(=O)Nc1ccccc1"
test_target = "L1210 leukemia ip in BDF1 mice, survival T/C"
result_value = "98 % of control"

[[record]]
compound = "NC1(C(=O)O)CSSC1"
test_target = "L1210 leukemia ip in BDF1 mice, survival T/C"
result_value = "106 % of control"

[[record]]
compound = "CCCCC/C=C\\C/C=C/CCCCCCCC1=NC(C)(CO)CO1 (stereo unspecified)"
test_target = "L1210 leukemia ip in BDF1 mice, survival T/C"
result_value = "92 % of control"

[[record]]
compound = "COC(=O)c1ccc2c3c(ccc(C(=O)OC)c13)C=C2"
test_target = "L1210 leukemia ip in BDF1 mice, survival T/C"
result_value = "102 % of control"

[[record]]
compound = "NC(=S)NN=C1CCN(Cc2ccccc2)CC1"
test_target = "L1210 leukemia ip in BDF1 mice, survival T/C"
result_value = "101 % of control"

[[record]]
compound = "O=C(CCCC(=O)NNC(=O)Nc1ccc(N=Nc2ccccc2)cc1)NNC(=O)Nc1ccc(N=Nc2ccccc2)cc1"
test_target = "L1210 leukemia ip in BDF1 mice, survival T/C"
result_value = "102 % of control"

[[record]]
compound = "CCN(CC)CC[N-]CCN(CC)CC.[Cl][Pt]"
test_target = "L1210 leukemia ip in BDF1 mice, survival T/C"
result_value = "97 % of control"

[[record]]
compound = "Nc1nc2ncnc(N)c2nc1-c1ccc(N(CCCl)CCCl)cc1"
test_target = "L1210 leukemia ip in BDF1 mice, survival T/C"
result_value = "98 % of control"

[[record]]
compound = "CN1CC(C)(C)C(=O)N1"
test_target = "L1210 leukemia ip in BDF1 mice, survival T/C"
result_value = "108 % of control"

[[record]]
compound = "C1CCC(OB2OB(OC3CCCCC3)OB(OC3CCCCC3)O2)CC1"
test_target = "L1210 leukemia ip in BDF1 mice, survival T/C"
result_value = "93 % of control"

[[record]]
compound = "Cc1cc(N(C)C)cc(C)c1C(=Nc1ccc(N=C(NO)c2c(C)cc(N(C)C)cc2C)cc1)NO"
test_target = "L1210 leukemia ip in BDF1 mice, survival T/C"
result_value = "97 % of control"

[[record]]
compound = "O=S(CS(=O)c1ccccc1)c1ccccc1 (stereo unspecified)"
test_target = "L1210 leukemia ip in BDF1 mice, survival T/C"
result_value = "100 % of control"

[[record]]
compound = "O=[N+]([O-])c1ccc2n[nH]c(Cl)c2c1"
test_target = "L1210 leukemia ip in BDF1 mice, survival T/C"
result_value = "95 % of control"

[[record]]
compound = "Clc1ncnc2c1nnn2C1CCCC1"
test_target = "L1210 leukemia ip in BDF1 mice, survival T/C"
result_value = "101 % of control"

[[record]]
compound = "CC(=O)c1ccccc1OC(F)(F)C(F)Cl (stereo unspecified)"
test_target = "L1210 leukemia ip in BDF1 mice, survival T/C"
result_value = "101 % of control"

[[record]]
compound = "CCN(CC)CCNc1ccc(CO)c2sc3ccccc3c(=O)c12"
test_target = "L1210 leukemia ip in BDF1 mice, survival T/C"
result_value = "102 % of control"

[[record]]
compound = "O=c1[nH]cnc2[nH]ncc12"
test_target = "L1210 leukemia ip in BDF1 mice, survival T/C"
result_value = "101 % of control"

